What EC50, HEK293/OX40/NF-kb luciferase reporter was measured for each of the following?
Molecular target: T1, human OX40 on cells (CHO-K1/hu OX40) (human, UniProt P43489 29-277)
T1 sequence (looked up): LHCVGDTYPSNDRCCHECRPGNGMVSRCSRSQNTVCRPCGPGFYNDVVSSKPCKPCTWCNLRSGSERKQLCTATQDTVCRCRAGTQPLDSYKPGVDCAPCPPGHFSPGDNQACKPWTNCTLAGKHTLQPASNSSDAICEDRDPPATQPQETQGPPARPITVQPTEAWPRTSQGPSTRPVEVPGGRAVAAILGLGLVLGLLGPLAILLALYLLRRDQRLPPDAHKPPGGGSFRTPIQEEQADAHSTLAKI
Experiment: cell-based or functional assay

Q. # input binder: PR002071 (antibody, human IgG1, V domains shown, no light chain; also called anti-OX40 HCAb antibody) VH: EVQLVESGGGLVQPGGSLRLSCAASGFTFSSYAMSWVRQAPGKGLEWVSAISGGGGSIFYADSVRGRFTISRDNSKNTLYLQMNSLRAEDTAVYYCANGMTGTTDVDYWGQGTLVTVSS ; wanted: its EC50, HEK293/OX40/NF-kb luciferase reporter
A. 7.85 nM

Q. # input binder: PR002058 (antibody, human IgG1, V domains shown, no light chain; also called anti-OX40 HCAb antibody) VH: EVQLLESGGGLVQPGGSLRLSCAASGFTFSSYAMSWVRQAPGKGLEWVSAISGGSGSTFYADSVRGRFTISRDNSKNTLYLQMNSLRAEDTAVYYCADGVTGTDFDFWGQGTLVTVSS ; wanted: its EC50, HEK293/OX40/NF-kb luciferase reporter
A. 4.29 nM

Q. # input binder: PR002061 (antibody, human IgG1, V domains shown, no light chain; also called anti-OX40 HCAb antibody) VH: EVQLLESGGGLVQPGGSLRLSCAASGFTFSSYAMSWVRQAPGKGLEWVSAISGRGGSTYYADSVRGRFTISRDNSKNTLYLQMNSLRAEDTAVYYCANGMTGTTDVDYWGQGTLVTVSS ; wanted: its EC50, HEK293/OX40/NF-kb luciferase reporter
A. 23.2 nM

Q. # input binder: PR002059 (antibody, human IgG1, V domains shown, no light chain; also called anti-OX40 HCAb antibody) VH: EVQLLESGGGLVQPGGSLRLSCVVSGLTFSSYAMSWVRQAPGKGREWVSAISGRGGSTFYADSVRGRFTISRDNSKNTLYLQMNSLRAEDTAVYYCANGMTGSTDVDYWGQGTLVTVSS ; wanted: its EC50, HEK293/OX40/NF-kb luciferase reporter
A. 1.83 nM

Q. # input binder: PR002074 (antibody, human IgG1, V domains shown, no light chain; also called anti-OX40 HCAb antibody) VH: EVQLLESGGGLVQPGGSLRLSCAASGFTFSSYAMSWVRQAPGKGLEWVSGISGGGNNTFYADSVRGRFTISRDNSKNTLYLQMNSLRAEDTAVYYCMRGWELPLLENWGQGTLVTVSS ; wanted: its EC50, HEK293/OX40/NF-kb luciferase reporter
A. 3.08 nM

Q. # input binder: PR002064 (antibody, human IgG1, V domains shown, no light chain; also called anti-OX40 HCAb antibody) VH: EVQLVETGGGLVQPGGSLRLSCAASGFTFSSYAMSWVRQAPGKGQEWVSAISGSGGSTFYADSVRGRFTISRDNSKNTLYLQMSSLRAEDTAVYYCANGMTGTTDVDYWGQGTLVTVSS ; wanted: its EC50, HEK293/OX40/NF-kb luciferase reporter
A. 30.3 nM

Q. # input binder: PR002067 (antibody, human IgG1, V domains shown, no light chain; also called anti-OX40 HCAb antibody) VH: EVQLLESGGGLVQPGGSLRLSCAASGFTFSSYAMSWVRQAPGKGLEWVSAISGRGGSTFYADSVRGRFTISRDNSKNTLYLQMNSLRAEDTAMYYCVDGTTGTTDVDYWGQGTLVTVSS ; wanted: its EC50, HEK293/OX40/NF-kb luciferase reporter
A. 5.37 nM

Q. # input binder: PR002068 (antibody, human IgG1, V domains shown, no light chain; also called anti-OX40 HCAb antibody) VH: EVQLLESGGGLVQPGGSLRLSCAASGFSFSSYAMTWVRQAPGKGLEWVSAISGGGGSIFYADSVRGRFTISRDNSKNTLYLQMNSLRAEDTAVYYCANGMTGSTDVDYWGQGTQVTVSS ; wanted: its EC50, HEK293/OX40/NF-kb luciferase reporter
A. 22.9 nM
